- assay-name: Plasma stability at 37° C., rat plasma
- Assay type: in vitro ADME
- study-conditions: Table 7, same conditions as Example 3, read-out: Plasma half life Rat
assay-metric: half-life (h)
Numeric answer only, unit h assumed.

Quick one: half-life of CC(C)C[C@H](NC(=O)CNC(=O)[C@H](N)Cc1c[nH]cn1)C(=O)N[C@@H](CC(N)=O)C(=O)N[C@H](C(=O)N[C@@H](CC(N)=O)C(=O)N[C@H](C(=O)N[C@@H](CC(C)C)C(=O)N[C@@H](CO)C(=O)N[C@@H](Cc1ccc(O)cc1)C(=O)NCC(=O)N[C@H](CC(=O)O)C(N)=O)[C@@H](C)O)C(C)C ?
2.55

Quick one: half-life of CC(C)C[C@H](NC(=O)CNC(=O)[C@H](N)Cc1c[nH]cn1)C(=O)N[C@@H](CC(N)=O)C(=O)N[C@H](C(=O)N[C@@H](CC(N)=O)C(=O)N[C@H](C(=O)N[C@@H](CC(C)C)C(=O)N[C@@H](CO)C(=O)N[C@@H](Cc1ccc(O)cc1)C(=O)NCC(=O)N[C@@H](CC(=O)O)C(N)=O)[C@@H](C)O)C(C)C ?
3.33

Quick one: half-life of CC(C)C[C@@H]1NC(=O)CNC(=O)[C@H](Cc2c[nH]cn2)NC(=O)[C@H](CC(=O)O)NC(=O)CNC(=O)[C@H](Cc2ccc(O)cc2)NC(=O)[C@H](CO)NC(=O)[C@H](CC(C)C)NC(=O)[C@H]([C@@H](C)O)NC(=O)[C@H](CC(N)=O)NC(=O)[C@H](C(C)C)NC(=O)[C@H](CC(N)=O)NC1=O ?
0.35

Quick one: half-life of CC(C)C[C@H](NC(=O)CNC(=O)[C@@H](N)Cc1c[nH]cn1)C(=O)N[C@@H](CC(N)=O)C(=O)N[C@H](C(=O)N[C@@H](CC(N)=O)C(=O)N[C@H](C(=O)N[C@@H](CC(C)C)C(=O)N[C@@H](CO)C(=O)N[C@@H](Cc1ccc(O)cc1)C(=O)NCC(=O)N[C@H](CC(=O)O)C(N)=O)[C@@H](C)O)C(C)C ?
3.03

Quick one: half-life of CC(=O)N[C@H](Cc1c[nH]cn1)C(=O)NCC(=O)N[C@H](CC(C)C)C(=O)N[C@H](CC(N)=O)C(=O)N[C@@H](C(=O)N[C@H](CC(N)=O)C(=O)N[C@@H](C(=O)N[C@H](CC(C)C)C(=O)N[C@H](CO)C(=O)N[C@H](Cc1ccc(O)cc1)C(=O)NCC(=O)N[C@H](CC(=O)O)C(N)=O)[C@H](C)O)C(C)C ?
3.03

---

- assay-name: Plasma stability at 37° C., human plasma
- Assay type: in vitro ADME
- study-conditions: Table 4, read-out: Plasma half life Man
Where no end group is shown, it is not given here.
assay-metric: half-life (h)
Numeric answer only, unit h assumed.

Quick one: half-life of H-SELPAGHGLNVNTLS [SEQ ID NO: 5, SELPAGHGLNVNTLS] ?
1.85
